These entries and their values trace back to patent US20250163167A1.

Molecular target: T1, hIL10Ra-his (Sino Biological, Catalog#10419) (human, UniProt Q13651 22-235)
T1 construct: Bought; also called Sino Biological cat#10419-H08H; not shown: C-terminal poly-His tag
T1 sequence: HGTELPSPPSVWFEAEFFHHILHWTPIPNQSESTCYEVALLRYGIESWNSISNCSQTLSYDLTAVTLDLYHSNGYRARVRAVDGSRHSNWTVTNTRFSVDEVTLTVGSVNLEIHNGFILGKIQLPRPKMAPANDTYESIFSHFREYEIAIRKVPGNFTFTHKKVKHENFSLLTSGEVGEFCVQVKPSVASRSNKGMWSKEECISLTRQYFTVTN
Test: SPR Biacore T200; mono-Fc VHH captured on Protein A chip, hIL10Ra-his analyte; 1:1 Langmuir fit
Readings of kon for the listed binders

| Binder | kon |
| --- | --- |
| hIL-10Ra_VHH8 Mono-Fc (Fc fusion, Mono-Fc VHH captured on Protein A; not shown: mono-Fc part) QVQLQESGGGSVQAGGSLRLSCAASGYTYSMYCMGWFRQAPGKEREGVAQINSDGSTSYADSVKGRFTISKDNAKNTLYLQMNSLKPEDTAMYYCAADSRVYGGSWYERLCGPYTYEYNYWGQGTQVTVSS | 168000 M⁻¹ s⁻¹ |
| hIL-10Ra_VHH14 Mono-Fc (Fc fusion, Mono-Fc VHH captured on Protein A; not shown: mono-Fc part) QVQLQESGGGSVQAGGSLRLSCGASGYTYSSYCMGWFRQVPGKEREGVAVIDSDGSTSYADSVKGRFTISKDNGKNTLYLQMNSLKPEDTAMYYCAADLGHYRPPCGVLYLGMDYWGKGTQVTVSS | 98400 M⁻¹ s⁻¹ |
